Values compiled from patent US11247970B2.

assay: Preliminary pharmacokinetics, liver concentration; format: in vivo; details: ip, 2 h after single dose 30 mg/kg I.P., read-out: compound concentration in the liver
PROPERTY_LABEL: concentration at 2 h
Record the result as a number with its unit.

Task item: // lookup concentration at 2 h for Cc1ccc(CN(CC(O)COc2cccc3[nH]cc(C)c23)C(C)(C)C)cc1 (stereo not shown)
Reply: 2300 nM
